Test system: Lefty1
ASSAY_SUMMARY: Lefty1 binders on small-molecule microarrays, primary screen, biochemical, small-molecule microarray, 635/667 nm fluorescence (AID 1139)
PARTICULARS: small-molecule microarray binding, fluorescence 635/667; higher = more signal
Label rule, in plain words: composite z-score of 0.7 and up is Met, under 0.7 is Not met.

{"columns": ["MOLECULE", "STUDY_TARGET", "ASSIGNED_CLASS"],
 "data": [
  ["C=C(COC)C(=O)CC[C@H](OC(C)=O)c1ccc(CO)o1", "Lefty1", "Met"],
  ["CC1CC/C=C\\[C@H]2OC34C=CCN(C(C)C)C(=O)[C@H]3N(C(C)CO)C(=O)[C@@H]4C2C(=O)O1 (some centres not stated)", "Lefty1", "Not met"],
  ["O=C/C=C/c1ccc(-c2ccccc2)cc1", "Lefty1", "Not met"],
  ["C=C(COC)/C(=C/C[C@@H](OC(=O)c1ccncc1)c1ccccc1OCCO)c1cnc2ccccc2c1", "Lefty1", "Met"],
  ["CCCCN1CC=CC23O[C@@H]4C=CCCOC(=O)C4[C@H]2C(=O)N(CCO)[C@@H]3C1=O (some centres not stated)", "Lefty1", "Not met"],
  ["Cc1ccc(S[C@]2(C(=O)NC(C)C)CC(=O)N(Cc3ccccc3)[C@@H]2c2ccc(CO)cc2I)cc1", "Lefty1", "Not met"],
  ["COCCOC(=O)N1C(=O)[C@@]2(c3cc(C#CCC(C(=O)OC)C(=O)OC)ccc31)[C@H](c1ccc(O)cc1)N1[C@H](c3ccccc3)[C@H](c3ccccc3)OC(=O)[C@H]1[C@@H]2C(=O)N1CCc2cc(OC)c(OC)cc2C1", "Lefty1", "Not met"],
  ["N#Cc1ccc(NN2C(C(O)c3ccc(B(O)O)cc3)C=CC3CN(c4ccccc4)C(=O)C32)cc1 (configuration not stated)", "Lefty1", "Not met"],
  ["COc1ccc(NN2C(C(O)c3ccccc3)C=CC3C(=O)N(C4CCCCC4)C(=O)C32)cc1 (configuration not stated)", "Lefty1", "Met"],
  ["COC(=O)C(CC#Cc1ccc2c(c1)[C@]1(C(=O)N2)[C@H](C(=O)N2CCCCCCC2)[C@H]2C(=O)O[C@H](c3ccccc3)[C@H](c3ccccc3)N2[C@@H]1c1ccc(OCCO)cc1)C(=O)OC", "Lefty1", "Met"],
  ["Cc1ccc(S[C@]2(C(=O)NCC(C)C)CC(=O)N(C(C)C)[C@@H]2c2ccc(CO)cc2I)cc1", "Lefty1", "Not met"],
  ["C[N+](C)(C)CCCC[C@@H]1NC(=O)[C@H]2C[C@@H](C(=O)NCCCCCN)[C@@H](c3ccc(O)cc3)N2C1=O", "Lefty1", "Met"],
  ["COC(=O)c1ccc(OC)c(/C=C\\CC(OC(=O)c2ccncc2)c2ccccc2)c1 (configuration not stated)", "Lefty1", "Met"],
  ["CCCC1(C(=O)OC)C=C2C(=C(C(C)C)C(=O)C2C)CN1 (configuration not stated)", "Lefty1", "Not met"],
  ["CC(C)Cc1ccc(CN2CC[C@@H](NC(=O)c3ccccc3)C2)cc1", "Lefty1", "Not met"],
  ["O=C1O[C@@H](c2ccccc2)[C@@H](c2ccccc2)N2[C@@H](c3ccccc3OCCO)[C@]3(C(=O)Nc4ccc(C#CC5(O)CCCCCC5)cc43)[C@@H](C(=O)N3CCCCCCC3)[C@H]12", "Lefty1", "Met"],
  ["CC(C)[Si]1(C(C)C)OCc2cc(-c3ccc(-c4ccc(Cl)c(Cl)c4)o3)nc(-c3ccc(Oc4ccccc4)cc3)c21", "Lefty1", "Not met"],
  ["O=C1C2C=CC(C(O)C(c3ccccc3)c3ccccc3)N(Nc3ccccc3F)C2C(=O)N1c1ccccc1 (configuration not stated)", "Lefty1", "Not met"],
  ["CC1C2C(CCCO)=CC(C3C(=O)N(C(N)=O)C(=O)C23)N1Cc1cccc(OC(F)(F)F)c1 (configuration not stated)", "Lefty1", "Not met"],
  ["COC(=O)[C@]1(Cc2ccccc2CN=[N+]=[N-])N=C(c2ccc(OCCCO)cc2)O[C@@H]1c1ccccc1N=[N+]=[N-]", "Lefty1", "Not met"],
  ["O=C1NC(=O)C2C1C=CC(C(O)C(O)CO)N2Nc1ccccn1 (configuration not stated)", "Lefty1", "Not met"],
  ["CN1C(=O)C2C=CC(C(O)c3cccs3)N(N(c3ccccc3)c3ccccc3)C2C1=O (configuration not stated)", "Lefty1", "Not met"],
  ["C=CCN1C(=O)[C@@]2(O[C@@H](CCO)[C@H]([Si](C)(C)c3ccc(OC)cc3)[C@H]2C)c2cc(N3CCCCC3=O)ccc21", "Lefty1", "Met"],
  ["COCCCNC(=O)[C@@]1(Cc2ccccc2I)c2ccccc2C(=O)N(C2CCCCC2)[C@H]1c1ccc(CO)cc1", "Lefty1", "Met"],
  ["[N-]=[N+]=Nc1ccccc1C[C@@]1(C(=O)NCC(O)CO)N=C(c2ccc(OCCCO)cc2)O[C@@H]1c1ccccc1N=[N+]=[N-] (some centres not stated)", "Lefty1", "Not met"],
  ["CCCC=C(CCC)[C@@H](NC(=O)c1ccc(C(=O)OC)cc1)c1ccc(C(=O)OC)cc1", "Lefty1", "Not met"],
  ["C[C@]12C(=O)N(CCO)[C@@H]3C(=O)N(c4ccc(Cl)cc4)CC=CC31O[C@@H]1/C=C\\CCCOC(=O)C12 (some centres not stated)", "Lefty1", "Not met"],
  ["CN1C(=O)C2C(C1=O)C1C=C(CCCO)C2C(C2CC2)N1C (configuration not stated)", "Lefty1", "Not met"],
  ["COc1cc(Cc2cc3c(c(CCc4ccccc4)n2)[Si](C(C)C)(C(C)C)O[C@H]3c2ccccc2)cc(OC)c1OC", "Lefty1", "Not met"],
  ["O=C1c2ccccc2[C@@]2(Cc3ccccc3N(CC(F)(F)F)C2=O)[C@H](c2ccc(CO)cc2)N1Cc1ccccc1", "Lefty1", "Met"],
  ["C=CCOC(=O)[C@H]1[C@@H]2C(=O)O[C@@H](c3ccccc3)[C@@H](c3ccccc3)N2[C@@H](c2ccc(OCCOC(=O)[C@H]3C[C@H]4C(=O)NCC(=O)N4[C@H]3c3ccc(O)cc3)cc2)[C@]12C(=O)Nc1ccccc12", "Lefty1", "Met"],
  ["OCCCc1cc[n+](Cc2cc3c(cc2Br)OCO3)cc1", "Lefty1", "Not met"]
]}

Where do the numbers come from? From PubChem BioAssay.
